- assayDetails: Cytotoxicity against human C8166 cells by MTT assay
- Assay type: cell-based
Below, each of the molecules is paired with its reported CC50 value.
Numeric answer only, unit µg/mL assumed.

Use the examples below as a reference point.
COc1c2c(cc3c1-c1c(cc4c(c1O)OCO4)C[C@H](C)[C@H](C)[C@H]3OC)OCO2 ... 74.6
COc1cc2c(c(OC)c1O)-c1c(cc(OC)c(OC)c1OC)C[C@H](C)[C@H](C)[C@H]2O ... 32.1
COc1cc2c(c(O)c1OC)-c1c(cc3c(c1OC)OCO3)[C@H](OC)[C@@H](C)[C@@H](C)C2 ... 36.7

Supply reported CC50 belonging to this molecule: COc1cc(C(O)C(C(=O)O)C(CO)CO)cc(O)c1OC (centres undefined) 93.8

###

- assayDetails: Therapeutic index, ratio of CC50 for human C8166 cells to EC50 for HIV1
- Format: cell-based
- experimentalContext: read-out: Ratio CC50/EC50
Note to self: values exactly at 10 are Fulfilled. So selectivity ratio at or above 10 is Fulfilled, below is Not fulfilled.

Here's what some known entries look like.
COc1cc2c(c(O)c1OC)-c1c(cc(OC)c(OC)c1O)[C@H](O)[C@@H](C)[C@@H](C)C2 ... Not fulfilled
COc1cc2c(c(OC)c1O)-c1c(cc(OC)c(OC)c1OC)C[C@H](C)[C@H](C)[C@H]2O ... Not fulfilled
COc1cc2c(c(OC)c1OC)-c1c(cc3c(c1O)OCO3)[C@H](OC)[C@@H](C)[C@@H](C)C2 ... Fulfilled
COc1c2c(cc3c1-c1c(cc4c(c1O)OCO4)[C@H](OC)[C@@H](C)[C@@H](C)C3)OCO2 ... Not fulfilled
COc1c(O)cc2c(c1OC)-c1c(cc3c(c1OC)OCO3)C[C@H](C)[C@H](C)[C@H]2O ... Fulfilled

Is the recorded value of selectivity ratio equal to or greater than 10 for this molecule? COc1ccc(C(c2ccc(OC)c(O)c2)[C@H](C(=O)O)C(CO)CO)cc1O Fulfilled

Is the recorded value of selectivity ratio equal to or greater than 10 for this molecule? Cc1cn([C@H]2C[C@H](N=[N+]=[N-])[C@@H](CO)O2)c(=O)[nH]c1=O Fulfilled

###

Below, each of the molecules is paired with its reported CC50 value.
- assayDetails: Cytotoxicity against human C8166 cells by MTT assay
- Format: cell-based
Numeric answer only, unit µg/mL assumed.

COc1cc2c(c(O)c1OC)-c1c(cc(OC)c(OC)c1O)[C@H](O)[C@@H](C)[C@@H](C)C2 ... 47.4
COc1ccc(C(c2ccc(OC)c(O)c2)[C@H](C(=O)O)C(CO)CO)cc1O ... 73.5
COc1cc2c(c(OC)c1OC)-c1c(cc3c(c1O)OCO3)[C@H](OC)[C@@H](C)[C@@H](C)C2 ... 42.8
COc1c2c(cc3c1-c1c(cc4c(c1O)OCO4)[C@H](OC)[C@@H](C)[C@@H](C)C3)OCO2 ... 22.5
COc1cc(C(O)C(C(=O)O)C(CO)CO)ccc1O (stereo not drawn) ... 84.5
COc1ccc([C@@H](c2ccc3c(c2)OCO3)[C@H](C(=O)O)C(CO)CO)cc1O ... 82.1

Supply reported CC50 belonging to this molecule: COc1c(O)cc2c(c1OC)-c1c(cc3c(c1OC)OCO3)C[C@H](C)[C@H](C)[C@H]2O 70.6

The origin of these recorded values is ChEMBL document CHEMBL2331522.
